Test system: whole blood cells of group 3 pigs vaccinated with BCG-pAg85A
Assay type: cell-based, pigs (Sus scrofa domestica)
Below, each of the substances is paired with its reported IFN-γ levels, BCG / pAg85A animal number 4 value.

Use these answered entries as a reference point.
SUBSTANCE	REPORTED
161–180: synthetic overlapping peptide of mature Ag85A, aa 161–180 (PTLIGLAMGDAGGYKASDMW; UniProt P9WQP3 204-223, looked up, fragment)	37 pg/mL
21–40: synthetic overlapping peptide of mature Ag85A, aa 21–40 (DIKVQFQSGGANSPALYLLD; UniProt P9WQP3 64-83, looked up, fragment)	128 pg/mL
201–220: synthetic overlapping peptide of mature Ag85A, aa 201–220 (IANNTRVWVYCGNGKPSDLG; UniProt P9WQP3 244-263, looked up, fragment)	<5 pg/mL
261–280: synthetic overlapping peptide of mature Ag85A, aa 261–280 (THSWEYWGAQLNAMKPDLQR; UniProt P9WQP3 304-323, looked up, fragment)	157 pg/mL
81–100: synthetic overlapping peptide of mature Ag85A, aa 81–100 (DWYQPACGKAGCQTYKWETF; UniProt P9WQP3 124-143, looked up, fragment)	170 pg/mL

Kindly state the measured IFN-γ levels, BCG / pAg85A animal number 4 obtained for 181–200: synthetic overlapping peptide of mature Ag85A, aa 181–200 (GPKEDPAWQRNDPLLNVGKL; UniProt P9WQP3 224-243, looked up, fragment) with whole blood cells of group 3 pigs vaccinated with BCG-pAg85A.
17 pg/mL

Kindly state the measured IFN-γ levels, BCG / pAg85A animal number 4 obtained for 191–210: synthetic overlapping peptide of mature Ag85A, aa 191–210 (NDPLLNVGKLIANNTRVWVY; UniProt P9WQP3 234-253, looked up, fragment) with whole blood cells of group 3 pigs vaccinated with BCG-pAg85A.
38 pg/mL

Kindly state the measured IFN-γ levels, BCG / pAg85A animal number 4 obtained for 1–20: synthetic overlapping peptide of mature Ag85A, aa 1–20 (FSRPGLPVEYLQVPSPSMGR; UniProt P9WQP3 44-63, looked up, fragment) with whole blood cells of group 3 pigs vaccinated with BCG-pAg85A.
<5 pg/mL

Kindly state the measured IFN-γ levels, BCG / pAg85A animal number 4 obtained for 111–130: synthetic overlapping peptide of mature Ag85A, aa 111–130 (ANRHVKPTGSAVVGLSMAAS; UniProt P9WQP3 154-173, looked up, fragment) with whole blood cells of group 3 pigs vaccinated with BCG-pAg85A.
33 pg/mL

Kindly state the measured IFN-γ levels, BCG / pAg85A animal number 4 obtained for 101–120: synthetic overlapping peptide of mature Ag85A, aa 101–120 (LTSELPGWLQANRHVKPTGS; UniProt P9WQP3 144-163, looked up, fragment) with whole blood cells of group 3 pigs vaccinated with BCG-pAg85A.
<5 pg/mL

Kindly state the measured IFN-γ levels, BCG / pAg85A animal number 4 obtained for 35–53: synthetic overlapping peptide of mature Ag85A, aa 35–53 (ALYLLDGLRAQDDFSGWDI; UniProt P9WQP3 78-96, looked up, fragment) with whole blood cells of group 3 pigs vaccinated with BCG-pAg85A.
<5 pg/mL

Kindly state the measured IFN-γ levels, BCG / pAg85A animal number 4 obtained for 251–270: synthetic overlapping peptide of mature Ag85A, aa 251–270 (NGVFDFPDSGTHSWEYWGAQ; UniProt P9WQP3 294-313, looked up, fragment) with whole blood cells of group 3 pigs vaccinated with BCG-pAg85A.
11 pg/mL

Kindly state the measured IFN-γ levels, BCG / pAg85A animal number 4 obtained for 51–70: synthetic overlapping peptide of mature Ag85A, aa 51–70 (WDINTPAFEWYDQSGLSVVM; UniProt P9WQP3 94-113, looked up, fragment) with whole blood cells of group 3 pigs vaccinated with BCG-pAg85A.
<5 pg/mL

Kindly state the measured IFN-γ levels, BCG / pAg85A animal number 4 obtained for 141–160: synthetic overlapping peptide of mature Ag85A, aa 141–160 (QQFVYAGAMSGLLDPSQAMG; UniProt P9WQP3 184-203, looked up, fragment) with whole blood cells of group 3 pigs vaccinated with BCG-pAg85A.
894 pg/mL

Kindly state the measured IFN-γ levels, BCG / pAg85A animal number 4 obtained for 241–260: synthetic overlapping peptide of mature Ag85A, aa 241–260 (QDAYNAGGGHNGVFDFPDSG; UniProt P9WQP3 284-303, looked up, fragment) with whole blood cells of group 3 pigs vaccinated with BCG-pAg85A.
<5 pg/mL

Kindly state the measured IFN-γ levels, BCG / pAg85A animal number 4 obtained for 11–30: synthetic overlapping peptide of mature Ag85A, aa 11–30 (LQVPSPSMGRDIKVQFQSGG; UniProt P9WQP3 54-73, looked up, fragment) with whole blood cells of group 3 pigs vaccinated with BCG-pAg85A.
<5 pg/mL

Kindly state the measured IFN-γ levels, BCG / pAg85A animal number 4 obtained for 71–90: synthetic overlapping peptide of mature Ag85A, aa 71–90 (PVGGQSSFYSDWYQPACGKA; UniProt P9WQP3 114-133, looked up, fragment) with whole blood cells of group 3 pigs vaccinated with BCG-pAg85A.
<5 pg/mL

Kindly state the measured IFN-γ levels, BCG / pAg85A animal number 4 obtained for 221–240: synthetic overlapping peptide of mature Ag85A, aa 221–240 (GNNLPAKFLEGFVRTSNIKF; UniProt P9WQP3 264-283, looked up, fragment) with whole blood cells of group 3 pigs vaccinated with BCG-pAg85A.
<5 pg/mL

Kindly state the measured IFN-γ levels, BCG / pAg85A animal number 4 obtained for 151–170: synthetic overlapping peptide of mature Ag85A, aa 151–170 (GLLDPSQAMGPTLIGLAMGD; UniProt P9WQP3 194-213, looked up, fragment) with whole blood cells of group 3 pigs vaccinated with BCG-pAg85A.
71 pg/mL

Kindly state the measured IFN-γ levels, BCG / pAg85A animal number 4 obtained for 211–230: synthetic overlapping peptide of mature Ag85A, aa 211–230 (CGNGKPSDLGGNNLPAKFLE; UniProt P9WQP3 254-273, looked up, fragment) with whole blood cells of group 3 pigs vaccinated with BCG-pAg85A.
<5 pg/mL

* * *

Below, each of the substances is paired with its reported IFN-γ levels, BCG / pAg85A animal number 3 value.
System: whole blood cells of group 3 pigs vaccinated with BCG-pAg85A
Format: cell-based, pigs (Sus scrofa domestica)
Entry rule: numbers only, all in pg/mL.

SUBSTANCE	U	REPORTED
151–170: synthetic overlapping peptide of mature Ag85A, aa 151–170 (GLLDPSQAMGPTLIGLAMGD; UniProt P9WQP3 194-213, looked up, fragment)	pg/mL	257

Kindly state the measured IFN-γ levels, BCG / pAg85A animal number 3 obtained for 181–200: synthetic overlapping peptide of mature Ag85A, aa 181–200 (GPKEDPAWQRNDPLLNVGKL; UniProt P9WQP3 224-243, looked up, fragment) with whole blood cells of group 3 pigs vaccinated with BCG-pAg85A.
8

* * *

Below, each of the substances is paired with its reported IFN-γ levels, BCG / pAg85A animal number 3 value.
System: whole blood cells of group 3 pigs vaccinated with BCG-pAg85A
Format: cell-based, pigs (Sus scrofa domestica)

Use these answered entries as a reference point.
SUBSTANCE	TESTED_TARGET	REPORTED
191–210: synthetic overlapping peptide of mature Ag85A, aa 191–210 (NDPLLNVGKLIANNTRVWVY; UniProt P9WQP3 234-253, looked up, fragment)	whole blood cells of group 3 pigs vaccinated with BCG-pAg85A	156 pg/mL
91–108: 18-mer peptide spanning the sequence of Ag85B aa 91–108, used instead of Ag85A 91–110 (GCQTYKWETFLTSELPQW; UniProt P9WQP1 131-148, looked up, fragment)	whole blood cells of group 3 pigs vaccinated with BCG-pAg85A	2,377 pg/mL
221–240: synthetic overlapping peptide of mature Ag85A, aa 221–240 (GNNLPAKFLEGFVRTSNIKF; UniProt P9WQP3 264-283, looked up, fragment)	whole blood cells of group 3 pigs vaccinated with BCG-pAg85A	1,075 pg/mL

What does the data say about its IFN-γ levels, BCG / pAg85A animal number 3? Entry: 11–30: synthetic overlapping peptide of mature Ag85A, aa 11–30 (LQVPSPSMGRDIKVQFQSGG; UniProt P9WQP3 54-73, looked up, fragment)
<5 pg/mL

What does the data say about its IFN-γ levels, BCG / pAg85A animal number 3? Entry: 51–70: synthetic overlapping peptide of mature Ag85A, aa 51–70 (WDINTPAFEWYDQSGLSVVM; UniProt P9WQP3 94-113, looked up, fragment)
<5 pg/mL

What does the data say about its IFN-γ levels, BCG / pAg85A animal number 3? Entry: 261–280: synthetic overlapping peptide of mature Ag85A, aa 261–280 (THSWEYWGAQLNAMKPDLQR; UniProt P9WQP3 304-323, looked up, fragment)
<5 pg/mL
